- Test Details: label from the status in PepcDB records;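 further: failed if final PepcDB status was selected cloned or expressed and not failed if soluble or beyond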
Property Label: protein production

Any idea what protein production was measured for MTLLEAISNAVANQDKVDSQSDYPIPLSHDGIFANLKPKLENPNLGTLVNPISGWGISESDVEVIDLGKKFSSKLKRKLKDTNGFVKDEFVKMLKQFLEKIGEKVGISEAESEMVLGDQAGSEIQILVEKNGFLMGRDVSGLVLKGCISLEMWELVEILISNSLVDHSSYSYLVSNLVEKQRSDLLCVVIKEASDLGATELLSILKYFLCPSKEAISTMAKVREEWESQAMLAIEKVSNTELSKKSKVAEEASILLMVAHDGFSTSELCLHYLLASRNVDEVMFASAVSKLNGNEMGSFIRYLSKWMKKYEMFPQAGPCPKAASKLGLKLCNWVPELTDITKCLGLLIDENFSTLVLYSDLHEELKSIARVADGLASESKLSCFVANVVESLKLGAARN ?
failed

Next sequence: RLQPIIVPGWQGSGPGHWQTHWSRTLPHAVRLQQRDWHQPQRAEWVAALAAAVDAAPTPVLLVAHSLGCLVSAALPIALRAKVAGALLVAPADVERPGAPAAIAAFGPVPRQSLPYQSVVIASDDDPYCRLERARQFAQDWGSRLVVLQGAGHINADSQLGAWPQGLKQLAALRRRACW
failed

* * *

- Test Details: label from the status in PepcDB records
Property Label: protein production

For orientation, consider the following solved cases.
Any idea what protein production was measured for MTKVERLLINYKTLEEFKKFKEYGIQELSMLEELQDNIIENDSTSPFYGIYFGDKLVARMSLYQVNGKSNPYFDNRQDYLELWKLEVLPGYQNRGYGRALVEFAKSFKMPIRTNPRMKSAEFWNKMNFKTVKYDMARDKGEDPLIWHPDMDREMTPGESA ?
not failed

Next sequence: MWKTASDKGLGHLLRDVWSLLNEEERELLDKEIQPFPCKKASTVFSEGDIPNNLFYLYEGKIKILREGVYGRFHISRIVKPGQFFGMRPYFAEETCSSTAIAVENSKVLAIPVEAIEALLKGNTSFCRYFLKALAKELGYAERRTVTLTQKHVRGRLAETLLILKENFGFENDGATLSIYLSREELATLSNMTVSNAIRTLSTFVSERMLALDGKRIKIIDCDRLQKTARSG
not failed

Next sequence: MSRVHNRALSAAELQSFGDELDAIRARVLSQVGAADARYIRRIVAAVRWTGVAGRALLFLGAFVHSVLIPAWIAGVLLLALSKILENMELGHNVMHGQYDWMGDPQLNGNTYEWDIVATGDNWRKTHNFKHHTYTNVRGMDDDIGYGLLRIFPEQRWRPFYLLQPFIAVVFALLFEWGVAIQDLRLGRWFAGKMKAAELRASFLPVGRKMGRQMLKDYIVFPLLAGPFFLTVLLGNLAANVLRSIWTFVIIFCGHFTADAEVFPKESIRNESRGHWYLRQLRGSSNLTGGKLMNVLSGNLSHQIEHHFYPDLPANRYAQIAVEVKQVCARYGQHYNTGSLPRQFGQVMWRIVRHAFPSRPKPVRQGSGALQSA
failed

Next sequence: MSRGHCILAHGFESGPDALKVTALAEVAERLGWTHERPDFTDLDARRDLGQLGDVRGRLQRLLEIARAATEKGPVVLAGSSLGSYIAAQVSLQVPTRALFLMVPPTKMGPLPALDAAAVPISIVHAWHDELIPAADVIAWAQARSARLLLVDDGHRLGAHVQAASRAFAELLQSL
not failed

Next sequence: MIIETERLLLRPFNEQDVDALYLMNSNPAMLKYIPTAPFTDREQARELFHNVILQDYQQRGFGRWAVEHKADNRVIGFCGPKFIPEFNEVEIGYRYFPEYWGKGIGTEAAEAALSVFPQFGIKQTIALILEGNLGSETVAKRVGMYWREHSEFMGHK
failed

Now look at this one.
Any idea what protein production was measured for MNERRKAELVLLGATFIWGSTFPVMKIGVEDFPPITFIALRFGIASFVLFLALRKHIRKDALFPGLILGFTLFLGHGFQIVGLKYTTPSNSAFITSLYVVFTPFIAFLFFRKGLKMFDAFSLSLAVIGLYLISNAELRLNYGDALTVVAALSFAFQIVLVEYFGNLGVGLAFWQIFWNFILSTVYAGIFEGISLPSDPKVLGGIIYTGIFATALSFTLQVKYQPKVESYKAAIIYSSEPIFAHLLALAFLNDRLPPKGYLGAFLILLAVWLELYQERKNY ?
failed

* * *

- Test Details: label from the status in PepcDB records
Property Label: protein production

For orientation, consider the following solved cases.
Any idea what protein production was measured for SYDYQSAFDIIGPVMMGPSSSHTAGAVKIGNSARAVLGDMPKHIEIRYYESFAKTHQGHGTDVAIVGGAMGYSTFDSRIKSSLDIAKDENITIDIIEDEGESIGQHPNCAYIKANTKDGRYIEVIGISIGGGTIKLKGINVNGLNVELNHG ?
failed

Next sequence: MNFAGKHVGFGLTGSHCTYHEVLPQMERLVELGAKVTPFVTHTVQTTDTKFGESSEWINKIKQITEEPIVDSMVKAEPFGPKTPLDCMVIAPMTGNSTSKFANAMTDSPVLMGAKATLRNGKPVVVGISTNDALGLNGINIMRLMATKNIYFIPFGQDNPQVKPNSLVARMEALPETIEAALRGQQYQPVLIEKFRD
not failed

Next sequence: MPGKREMQKCSLITVLSLSVLMLAGCTTTYTMTTRTGEIIETQGKPEVDTATGMTKYADVYGYHRVMKTSEIVQTTEGASKLDWLEHHHHHH
not failed

Next sequence: MASYSLVESNSFGSENWCLKLQPSYKHGLLTGLSNGEIRLLDWSTGKSVQKIKASETAINDMKVIGSDFSAGHLVSSASIDAVKVFDIRTNDRIAQIQNEANSPFISLDSRHGLLACGTELQGIDAAVYIYDIRKWDTPLRSLIDSHHDDVTCIKFHPSDVNILLSGSTDGYTNIYDLKQDEEEDALHQVINYASIHSCGWLSPKRIFTLSHMETFAIHELNDKSDELKEPQPLDFGDVREIWNCDYVVDIYPGLIATGKTQENCGELCLLPFKDEKVDTENGIVIPHAHGDEVVRDIFIPAQHSNMLYSCGEDGCVKIWENKQGPLDIPENFWDYSKKMNVLGDDDREGSINLDEPLIIQKESVSTRPRKEKHKKAKKHSMKSRFKPY
failed

Next sequence: MSSLNNEEWDLLISGKKATLQYPIPLLCYPAPEVVSIAQIIDHTQLSLSATGSQIDVLCAEAKEYGFATVCVRPDYVSRAVQYLQGTQVGVTCVIGFHEGTYSTDQKVSEAKRAMQNGASELDMVMNYPWLSEKRYTDVFQDIRAVRLAAKDAILKVILETSQLTADEIIAGCVLSSLAGADYVKTSTGFNGPGASIENVSLMSAVCDSLQSETRVKASGGIRTIEDCVKMVRAGAERLGASAGVKIVNETRLGNRQVDEPMEPTNY
not failed

Next sequence: MGKVSSLKLKTNRRCIYITTIKEITEAIKADPDNAEYTAKGWDPLFHVLPTATILVISQAPGRIAQNTKTYFNDASGDRLRDWMGVTREQFYQSDRIAVMPLDFYYPGKGKSGDLPPRKGFMDKWHEPLLAMMPNVQLTLLVGQYAIKAYLGRSRQKTLTATVQNYQDYLPDYFPLVHPSPLNYGWQKKNPWFQATVVPDLQRRVQIALK
failed

Next sequence: MFLLEPKQSSNPMQPQETAARYDTIAQWWQTQHQDSQYGLRQLERAIQFVDPTHQPKLALEVGCGSSGRFIECLSNRGFQVEGLDISTAMIDLAQQLHPEVTFYRADICEWIPSKSYSLIVAWDSTFHLPLDQQAPVHRKLCAALEDQGILMFTCGGGDQAGEIAGVFQGQDFEYSTLGIDAFLKLLSDCHCTCLHLEYDQYPERHVYVIAKKVGAAIH
failed

Next sequence: MLQIADYIAENYRGKVVEVGIGRFTAVAELLARRGFEVFATDVVERRAPEGCRFYVDDVTKPNLKIYEGASLIYSLRPPPELFSAIVEVSRKVGADCLIKPLYGDYMEARIVNYKGAQFYLIRRENYD
failed

---
Any idea what protein production was measured for MYRLLALFVPPEAAFRTGRGFSFDAGEVTGAIGDSVTVLPLVVALGLLTPASLPHLLAGFGVFQVIWGLYYGVPLSVEPMKALAGLAIAGTLSHGGLVAAGLVAGGVLLVAGRTGSLSWIQQFVGEPVVRGVQFAVACLLVVAAVDLVAGSVGIAAAGAGLALVVALVSRNAVALVVLAVGAVWAATAGGIPAPAAPSLELFPAGGPTLSVGAIEGLLAQLAMTVGNAAVATSLLLSDLYDAEISPDRLADSMGAMNLAAVPLGAVPMCHGSGGLAGKHAFGARTGTANLVAGGFYAGLALVAGLLAAFPMALLGVLLVVVAASLSRVAFTKTDRRLFVAGVGGLAVVTNVAVAFVAATLWWQLRG ?
failed

Next sequence: MNDTLTLDEVVEFAENPEPRCPCVLLLDTSGSMQGAAIEALNQGLLSLKDELMKNSIAARRVEIAIVTFDSHINVIQDFVTADQFNPPILTAQGLTSMGAGIHKALDMVQERKSLYRANGVAYYRPWVFMITDGEPQGELDHLVEQAALRLQGDEVNKRVAFFSVGVENANMTRLNQIAVRTPLKLKGLNFIEMFVWLSASMSAVSHSQIDEQVALPPIGWGSI
failed

Next sequence: MTYKDYTGLDRTELLSKVRHMMSDKRFNHVLGVERAAIELAERYGYDKEKAGLAALLHDYAKELSDDEFLRLIDKYQPDPDLKKWGNNIWHGLVGIYKIQEDLAIKDQDILAAIAKHTVGSAQMSTLDKIVYVADYIEHNRDFPGVEEARELAKVDLNKAVAYETARTVAFLASKAQPIYPKTIETYNAYIPYLD
not failed

Next sequence: MSETAIQTKTQARQRKVFAHHHVQHYRSQLERRISHSPQFREGKVINAMPHITATPSWWQTAWSYFGGRAQLKPNAQLPVAPLNLQALQTRSKALRVTWLGHSSLFIEVDGLRVLTDPVFDYASPWIAKAWFARNLPNSGVREQLPLPDVIVISHDHYDHLEQASVVYYAAHSVTFYVPLGVGQHLIRWGVSPERIIEFDWWEQIKREGVEFICTPANHNSGRYYLDHNATLWCSWVIKGHQETLYFSGDSAYDTHFAKIAERCGPIDLACLEVAADVKQHQGYPVENWGHMQAKHTVQAFRDLQAKKLLPIHWATYELFTHQWDEPIADLVKHCQEQSITLLTPMAGESLTMANHSASHAWWQGLETEPMSGARYWQMGLACSLLLLLMVV
failed

Hello, the source for this data is a protein production outcome set (Wang et al. 2014), in case you need it.
